As shown below, each of these compounds has a reported pIC50 value.
System: Plasmodium falciparum
Test: Antimalarial activity against mefloquine resistant Plasmodium falciparum K1 assessed as parasitic growth inhibition measured after 48 hrs
Type: functional, organism-based
Conditions: K1, 48 h
Quick note: pIC50 values are minus log10 of concentrations in mol/L.

- COMPOUND: "CC1=C(CN2CCCCC2C(O)c2cc(C(F)(F)F)nc3c(C(F)(F)F)cccc23)[C@@H]2C[C@@H](C)C[C@@H]3C[C@]4(C)CC[C@@H](O1)[C@@]32OO4 (some centres not stated)"
  pIC50: 8.62

input: Which value of pIC50 has been reported for C[C@H]1C[C@@H]2C[C@@H]3CC[C@H]4OC(C(F)(F)F)=C(COCCOC(=O)CCC(=O)OC(c5cc(C(F)(F)F)nc6c(C(F)(F)F)cccc56)C5CCCCN5)[C@H](C1)[C@]24OO3 (some centres not stated) in the records?
output: 8.62
